Biological target: native human MET on living cells (human, UniProt P08581 25-1390)
Sequence (P08581 25-1390): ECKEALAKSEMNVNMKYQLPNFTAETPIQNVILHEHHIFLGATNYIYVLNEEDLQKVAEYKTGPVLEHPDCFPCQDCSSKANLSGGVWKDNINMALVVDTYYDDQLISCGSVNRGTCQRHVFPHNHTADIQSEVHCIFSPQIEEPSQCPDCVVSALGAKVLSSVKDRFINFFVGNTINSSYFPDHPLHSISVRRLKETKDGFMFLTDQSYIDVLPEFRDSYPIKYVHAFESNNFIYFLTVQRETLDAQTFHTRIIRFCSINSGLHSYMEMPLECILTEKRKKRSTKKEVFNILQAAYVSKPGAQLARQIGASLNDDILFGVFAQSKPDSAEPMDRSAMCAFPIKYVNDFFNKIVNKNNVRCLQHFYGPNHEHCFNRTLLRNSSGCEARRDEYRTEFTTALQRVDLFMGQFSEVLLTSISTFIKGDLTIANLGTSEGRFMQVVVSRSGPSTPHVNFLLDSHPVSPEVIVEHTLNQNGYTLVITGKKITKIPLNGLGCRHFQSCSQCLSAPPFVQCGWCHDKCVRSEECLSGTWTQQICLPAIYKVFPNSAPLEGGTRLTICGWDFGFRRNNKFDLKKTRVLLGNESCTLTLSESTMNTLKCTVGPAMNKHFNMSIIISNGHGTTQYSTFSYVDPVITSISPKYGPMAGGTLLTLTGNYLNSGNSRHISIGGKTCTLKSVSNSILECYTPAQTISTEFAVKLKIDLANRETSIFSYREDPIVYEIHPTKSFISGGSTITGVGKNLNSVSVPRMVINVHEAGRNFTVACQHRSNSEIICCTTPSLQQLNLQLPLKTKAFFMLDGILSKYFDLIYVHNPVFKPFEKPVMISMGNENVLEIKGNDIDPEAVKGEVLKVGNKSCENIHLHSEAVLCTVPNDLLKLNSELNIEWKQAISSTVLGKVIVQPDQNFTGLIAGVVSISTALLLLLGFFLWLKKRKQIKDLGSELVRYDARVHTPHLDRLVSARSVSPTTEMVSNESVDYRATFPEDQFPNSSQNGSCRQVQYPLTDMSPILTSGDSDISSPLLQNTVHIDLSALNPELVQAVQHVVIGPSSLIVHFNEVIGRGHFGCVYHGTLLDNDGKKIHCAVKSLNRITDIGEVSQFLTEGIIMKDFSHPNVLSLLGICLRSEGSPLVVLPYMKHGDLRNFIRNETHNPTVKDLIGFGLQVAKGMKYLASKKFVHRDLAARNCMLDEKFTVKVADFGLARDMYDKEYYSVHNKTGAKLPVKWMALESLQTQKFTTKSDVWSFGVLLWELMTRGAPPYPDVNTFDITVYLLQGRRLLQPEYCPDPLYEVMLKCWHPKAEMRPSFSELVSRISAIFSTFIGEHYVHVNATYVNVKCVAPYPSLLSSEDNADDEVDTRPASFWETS
Test: cell-based or functional assay
Would you mind telling me the reported protection from staurosporine, viability EC50, MCF10A cells of each entry?
Give the number; nM is assumed, so skip it.

stdin: Given the entry 71D4 chimeric llama-human IgG1 mAb (antibody, V domains shown, llama VH on human IgG1 CH1-CH2-CH3, llama VL on human lambda CL) VH: ELQLVESGGGLVQPGGSLRLSCAASGFTFSGYGMSWVRQAPGKGLEWVSDINSGGGSTSYADSVKGRFTISRDNAKNTLYLQMNSLKPEDTAVYYCAKDMRLYLARYNDYEAWDYWGQGTQVTVSS VL: SSALTQPSALSVTLGQTAKITCQGGSLGSSYAHWYQQKPGQAPVLVIYDDDSRPSGIPERFSGSSSGGTATLTISGAQAEDEGDYYCQSADSSGNAAVFGGGTHLTVL , report its measured protection from staurosporine, viability EC50, MCF10A cells.
stdout: 30.2

stdin: Now the same for 76G7 chimeric llama-human IgG1 mAb (antibody, V domains shown, llama VH on human IgG1 CH1-CH2-CH3, llama VL on human lambda CL) VH: QVQLVESGGNLVQPGGSLRLSCAASGFTFSNYYMSWVRQAPGKGLEWVSDIYSDGSTTWYSDSVKGRFTISRDNAKNTLSLQMNSLKSEDTAVYYCARVKIYPGGYDAWGQGTQVTVSS VL: QAGLTQPPSVSGSPGKTVTISCAGNSSDVGYGNYVSWYQQFPGMAPKLLIYLVNKRASGITDRFSGSKSGNTASLTISGLQSEDEADYYCASYTGSNNIVFGGGTHLTVL
stdout: 25.4
